From: patent US20250296936A1

Measured EC50, listed per entry for reference.
Tested on: SARS-CoV-2-NLuc in A549-hACE2 cells
assayInfo: microbe, parasite or virus in culture
Assay type: cell-based, SARS Coronavirus 2
testSettings: Severe acute respiratory syndrome coronavirus, 48 h, read-out: MPro EC50 (nM)

| compound | targetDesc | unitDescriptor | signQualifier | EC50 |
| --- | --- | --- | --- | --- |
| Cn1c(=O)n(-c2cncc3ccccc23)c(=O)c2oc(-c3ccc(F)cc3Cl)cc21 [Example 36] | SARS-CoV-2-NLuc in A549-hACE2 cells | nM | = | 3270 |
| COc1cc(-c2cc3[nH]c(=O)n(-c4cnnc(C)c4)c(=O)c3o2)c(Cl)cc1F [Example 12] | SARS-CoV-2-NLuc in A549-hACE2 cells | nM | > | 10000 |
| N#CCCn1c(=O)n(-c2cncc3ccc(F)cc23)c(=O)c2oc(-c3ccccc3Cl)cc21 [Example 22] | SARS-CoV-2-NLuc in A549-hACE2 cells | nM | = | 19 |
| COc1cc(-c2cc3c(o2)c(=O)n(-c2cncc4cnn(C)c24)c(=O)n3C)c(Cl)cc1F [Example 30] | SARS-CoV-2-NLuc in A549-hACE2 cells | nM | = | 683 |
| COc1ccc2cncc(-n3c(=O)[nH]c4cc(-c5ccccc5Cl)oc4c3=O)c2c1 [Example 10] | SARS-CoV-2-NLuc in A549-hACE2 cells | nM | = | 95.6 |
